study target: BACE1 (Homo sapiens, UniProt P56817)
Construct: purchased Invitrogen P2985
Sequence (P56817 46-501): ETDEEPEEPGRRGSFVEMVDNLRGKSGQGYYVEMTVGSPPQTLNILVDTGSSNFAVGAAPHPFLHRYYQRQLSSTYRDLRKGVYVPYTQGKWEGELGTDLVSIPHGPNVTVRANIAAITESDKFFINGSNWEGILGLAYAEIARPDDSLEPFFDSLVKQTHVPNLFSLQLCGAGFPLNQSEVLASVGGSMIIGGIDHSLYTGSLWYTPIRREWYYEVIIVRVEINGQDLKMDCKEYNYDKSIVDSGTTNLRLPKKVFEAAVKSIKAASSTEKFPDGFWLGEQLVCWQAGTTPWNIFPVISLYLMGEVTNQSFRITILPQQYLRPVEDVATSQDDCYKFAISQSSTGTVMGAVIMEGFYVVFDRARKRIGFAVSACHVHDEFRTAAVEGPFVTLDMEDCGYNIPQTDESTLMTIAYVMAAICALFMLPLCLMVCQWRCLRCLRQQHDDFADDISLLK
protocol text: BACE1 fluorescence resonance energy transfer (FRET) based enzymatic inhibition assay
Type: biochemical
outcome measure: IC50 (nM)

CC(=O)Nc1c(Cl)cc(CNC(=N)NC(=O)Cn2ccc3ccccc32)cc1Cl | 1010

1: CC(C)C(=O)Nc1c(Cl)cc(CNC(=N)NC(=O)Cn2ccc3ccccc32)cc1Cl
2: N=C(NCc1cc(Cl)cc(Cl)c1)NC(=O)Cn1ccc2ccccc21
(Q) Sorting by IC50 in descending order, would 1 or 2 appear first? Your answer should be the label of the entry you select.
(A) 2
(2: 8750 nM, 1: 1720 nM)

* * *

study target: BACE1 (Homo sapiens, UniProt P56817)
Construct: purchased Invitrogen P2985
protocol text: BACE1 fluorescence resonance energy transfer (FRET) based enzymatic inhibition assay
Assay type: biochemical
measurement parameters: compound concentration 100 μM; Table 1
outcome measure: Inhibition ratio (100 μM) (%)

Solved cases (3 shown):
N=C(NCc1cccc(OC(F)(F)F)c1)NC(=O)Cn1ccc2ccccc21 | 66.51
COc1cccc(CNC(=N)NC(=O)Cn2ccc3ccccc32)c1 | 58.75
N=C(NCc1cc(Cl)cc(Cl)c1)NC(=O)Cn1ccc2ccccc21 | 100

1: N=C(N)NC(=O)Cn1ccc2ccccc21
2: N=C(NCc1cc(F)cc(F)c1)NC(=O)Cn1ccc2ccccc21
3: CC(=O)Nc1ccc(CNC(=N)NC(=O)Cn2ccc3ccccc32)cc1
(Q) hey, can you rank those molecules up there by Inhibition ratio (100 μM)? biggest number first please Field: ranking. Enter the labels in the order requested.
(A) 1, 2, 3
(1: 77.00%, 2: 52.38%, 3: 35.3%)

* * *

study target: BACE1 (Homo sapiens)
Construct: purchased Invitrogen P2985
protocol text: BACE1 fluorescence resonance energy transfer (FRET) based enzymatic inhibition assay
Assay type: biochemical
measurement parameters: compound concentration 100 µM; Table 2
outcome measure: inhibition at 100 µM (%)

CC(=O)Nc1c(Cl)cc(CNC(=N)NC(=O)Cn2ccc3cc(C#N)ccc32)cc1Cl [Compound 24] | 99.5
CC(=O)Nc1c(Cl)cc(CNC(=N)NC(=O)Cn2ccc3ccc(Br)cc32)cc1Cl [Compound 23] | 100
CC(=O)Nc1c(Cl)cc(CNC(=N)NC(=O)Cn2ccc3cc(Br)ccc32)cc1Cl [Compound 22] | 109
CC(=O)Nc1c(Cl)cc(CNC(=N)NC(=O)Cn2ccc3ccccc32)cc1Cl [Compound 19] | 100
CC(=O)Nc1c(Cl)cc(CNC(N)=NC(=O)Cn2ccc3ccc(CN(C)S(C)(=O)=O)cc32)cc1Cl [Compound 28] | 100
COc1ccc2ccn(CC(=O)NC(=N)NCc3cc(Cl)c(NC(C)=O)c(Cl)c3)c2c1 [Compound 27] | 103

* * *

study target: BACE1 (Homo sapiens)
Construct: purchased Invitrogen P2985
protocol text: BACE1 fluorescence resonance energy transfer (FRET) based enzymatic inhibition assay
Type: biochemical
measurement parameters: Table 2
pIC50: −log10 of the molar value.
outcome measure: pIC50

1: COc1ccc2ccn(CC(=O)NC(=N)NCc3cc(Cl)c(NC(C)=O)c(Cl)c3)c2c1
2: CC(=O)Nc1c(Cl)cc(CNC(=N)NC(=O)Cn2ccc3cc(C#N)ccc32)cc1Cl
(Q) Would you mind telling me which has the lower recorded pIC50 between 1 and 2 ? Your answer should be the label of the entry you select.
(A) 1

* * *

study target: BACE1 (Homo sapiens, UniProt P56817)
Construct: purchased Invitrogen P2985
protocol text: BACE1 fluorescence resonance energy transfer (FRET) based enzymatic inhibition assay
Assay type: biochemical
measurement parameters: compound concentration 100 μM; Table 1
outcome measure: Inhibition ratio (100 μM) (%)

CCNc1c(Cl)cc(CNC(=N)NC(=O)Cn2ccc3ccccc32)cc1Cl | 46.8

1: CC(=O)Nc1c(Cl)cc(CNC(=N)NC(=O)Cn2ccc3ccccc32)cc1Cl
2: N=C(NCc1ccccc1)NC(=O)Cn1ccc2ccccc21
(Q) Would you mind telling me which has the lower recorded Inhibition ratio (100 μM) between 1 and 2 ? Your answer should be the label of the entry you select.
(A) 2
(2: 40.69%, 1: 100%)

* * *

study target: BACE1 (Homo sapiens, UniProt P56817)
Construct: purchased Invitrogen P2985
protocol text: BACE1 fluorescence resonance energy transfer (FRET) based enzymatic inhibition assay
Format: biochemical
measurement parameters: Table 2
outcome measure: IC50 (µM)

CC(=O)Nc1c(Cl)cc(CNC(=N)NC(=O)Cn2ccc3ccc(Br)cc32)cc1Cl [Compound 23] | 0.079

A: CC(=O)Nc1c(Cl)cc(CNC(=N)NC(=O)Cn2ccc3cc(Br)ccc32)cc1Cl [Compound 22]
B: CC(=O)Nc1c(Cl)cc(CNC(N)=NC(=O)Cn2ccc3ccc(CN(C)S(C)(=O)=O)cc32)cc1Cl [Compound 28]
(Q) Would you mind telling me which has the lower recorded IC50 between A and B ? Your answer should be the label of the entry you select.
(A) A

Data provenance: paper PMC6270065
